Kindly supply the reported pIC50 values for the records listed here.
# target entity: human p38 kinase alpha (Homo sapiens)
# Construct: The coding region of the human p38 cDNA was obtained by PCR-amplification from RNA isolated from the human monocyte cell line THP.1; GST (N); made in house; host or cells: E. coli DH10B
# Sequence (Q16539 whole entry): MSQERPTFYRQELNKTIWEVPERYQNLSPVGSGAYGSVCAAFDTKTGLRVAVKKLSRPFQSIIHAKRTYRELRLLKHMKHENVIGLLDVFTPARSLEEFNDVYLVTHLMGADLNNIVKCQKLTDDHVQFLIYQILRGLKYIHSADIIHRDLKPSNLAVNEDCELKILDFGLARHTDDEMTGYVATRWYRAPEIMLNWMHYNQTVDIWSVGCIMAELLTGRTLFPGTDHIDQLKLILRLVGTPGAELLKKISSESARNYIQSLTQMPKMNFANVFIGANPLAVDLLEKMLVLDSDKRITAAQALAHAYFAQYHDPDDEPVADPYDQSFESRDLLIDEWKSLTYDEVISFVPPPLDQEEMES
# experiment notes: p38 kinase in vitro assay
# Type: biochemical
# measurement setup: Table II; several values in a cell = repeat determinations; read-out: p38A
Reminder that pIC50 is minus the log10 of a molar concentration.

### Prompt Entry under review: COc1ccc(Cn2ccc(OCc3ccc(Cl)cc3)c(Br)c2=O)cc1 [QQ] . Reported pIC50?
### Response 5.62

### Prompt Entry under review: CC(C)(C)c1ccc(Cn2ccc(OCc3ccccc3)c(Br)c2=O)cc1 [ZZ] . Reported pIC50?
### Response 5.44

### Prompt Entry under review: O=c1c(CO)c(OCc2ccccc2)ccn1Cc1ccccc1 [NNN] . Reported pIC50?
### Response 4.60

### Prompt Entry under review: O=c1c(Br)c(OCc2ccccc2)ccn1Cc1ccc(OC(F)(F)F)cc1 [DDDD] . Reported pIC50?
### Response 5.60

### Prompt Entry under review: Cc1cc(OCc2ccccc2)cc(=O)n1Cc1ccccc1 [OOOO] . Reported pIC50?
### Response 4.41

### Prompt Entry under review: CCn1ccc(OCc2ccccc2)c(Br)c1=O [AAA] . Reported pIC50?
### Response 5.70

### Prompt Entry under review: O=c1cc(OCc2ccccc2Cl)ccn1Cc1ccccc1 [WWW] . Reported pIC50?
### Response 4.09

### Prompt Entry under review: Cn1ccc(OCc2ccccc2)c(Br)c1=O [EEE] . Reported pIC50?
### Response 4.94

### Prompt Entry under review: Cn1ccc(OCc2ccccc2)c(Br)c1=O [GGG] . Reported pIC50?
### Response 4.88

### Prompt Entry under review: O=c1c(Br)c(OCc2ccccc2)ccn1CCc1ccsc1 [QQQ] . Reported pIC50?
### Response 5.48

### Prompt Entry under review: O=c1c(Br)c(OCc2ccc(Cl)cc2)ccn1Cc1ccc(Cl)cc1 [OO] . Reported pIC50?
### Response 5.61
